- TARGET: 72 kDa type IV collagenase (Homo sapiens, UniProt P08253)
- Sequence (P08253 whole entry): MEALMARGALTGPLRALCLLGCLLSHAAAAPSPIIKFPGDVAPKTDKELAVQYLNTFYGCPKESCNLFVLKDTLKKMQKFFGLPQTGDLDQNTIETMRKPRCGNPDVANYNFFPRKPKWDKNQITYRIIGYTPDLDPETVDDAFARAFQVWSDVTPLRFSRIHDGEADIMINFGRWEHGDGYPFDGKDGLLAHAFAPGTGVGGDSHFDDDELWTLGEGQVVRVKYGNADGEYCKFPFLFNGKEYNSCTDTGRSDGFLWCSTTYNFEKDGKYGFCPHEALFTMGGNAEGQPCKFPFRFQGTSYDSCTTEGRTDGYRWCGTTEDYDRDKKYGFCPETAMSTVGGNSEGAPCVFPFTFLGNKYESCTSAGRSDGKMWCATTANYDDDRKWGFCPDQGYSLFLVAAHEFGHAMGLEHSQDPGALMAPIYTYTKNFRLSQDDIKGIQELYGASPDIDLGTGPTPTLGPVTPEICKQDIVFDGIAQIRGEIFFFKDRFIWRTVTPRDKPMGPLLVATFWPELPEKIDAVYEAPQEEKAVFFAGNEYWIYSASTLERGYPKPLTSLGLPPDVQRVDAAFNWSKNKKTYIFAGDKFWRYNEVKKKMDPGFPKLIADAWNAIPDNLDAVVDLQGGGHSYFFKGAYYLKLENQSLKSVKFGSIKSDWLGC
- PROTOCOL_DESCRIPTION: Inhibition of MMP-2.
pKi: −log10 of the molar value.
Returns one of 1.0 or 0.0; 1.0 when pKi is >= 7.

Solved cases (5 shown):
CC(C)C[C@H](NC(=O)[C@H](CCc1ccccc1)N[C@H](CCNC(=O)CCCc1ccccc1)C(=O)O)C(=O)Nc1ccccc1 :: 0.0
CC[C@@H](N[C@@H](CCc1ccccc1)C(=O)N[C@@H](CC(C)C)C(=O)Nc1ccccc1)C(=O)O :: 0.0
CCCCCC[C@@H](N[C@@H](CCc1ccccc1)C(=O)N[C@@H](CC(C)C)C(=O)Nc1ccccc1)C(=O)O :: 0.0
CCCC[C@@H](N[C@@H](CCc1ccccc1)C(=O)N[C@@H](CC(C)C)C(=O)Nc1ccccc1)C(=O)O :: 0.0
CC(C)C[C@H](NC(=O)[C@H](CCc1ccccc1)N[C@H](CCCNC(=O)Cc1ccccc1)C(=O)O)C(=O)Nc1ccccc1 :: 1.0

Identify whether the reported pKi of the following molecule is 7 or greater: CC(C)C[C@H](NC(=O)[C@H](CCc1ccccc1)N[C@H](CCCCCNC(=O)Cc1ccccc1)C(=O)O)C(=O)Nc1ccccc1
0.0

Now the same for CC(C)C[C@H](NC(=O)[C@H](CCc1ccccc1)N[C@H](CCN1C(=O)c2ccccc2C1=O)C(=O)O)C(=O)Nc1ccccc1
1.0

Now the same for CC(C)C[C@H](NC(=O)[C@H](CCc1ccccc1)N[C@H](CCCN1C(=O)c2ccccc2C1=O)C(=O)O)C(=O)Nc1ccccc1
0.0
